Where these numbers come from: patent US20240124483A1

- TARGET OR SYSTEM: KRas Q61H mutant (Homo sapiens (Human), UniProt P01116, Q61H)
- Sequence (P01116 other isoform, or with tags, fused parts or gaps Q61H): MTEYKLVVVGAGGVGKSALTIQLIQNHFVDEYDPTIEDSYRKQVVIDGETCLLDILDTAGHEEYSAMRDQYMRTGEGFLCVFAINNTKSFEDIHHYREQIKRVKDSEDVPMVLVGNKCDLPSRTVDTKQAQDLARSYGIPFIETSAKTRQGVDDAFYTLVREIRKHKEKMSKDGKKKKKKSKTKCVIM
- PROTOCOL: Ras GTP Binding Domain Inhibition Assay, KRas Q61H mutant
- ASSAY CONDITIONS: 20 μM; without SOS; read-out: KRas Q61H mutant: % inh.
Form field: inhibition at 20 µM (one value per entry).

| COMPOUND | inhibition at 20 µM |
| --- | --- |
| CO[C@H]1CC[C@@H](Nc2nc(-c3nccn3C)nc3sc(-c4ccn(C(C)C)n4)c(C)c23)C1 (racemic) | 76 to 100% |
| CO[C@H]1CC[C@@H](Nc2nc(-c3nccn3C)nc3sc(-c4ccn(C)n4)c(-c4ccccc4)c23)C1 (racemic) | 26 to 45% |
| COCC1CN(c2nc(-c3nccn3C)nc3sc(-c4ccn(C(C)C)n4)c(C)c23)CCO1 (racemic) | 76 to 100% |
| COCCn1ccc(-c2sc3nc(-c4nccn4C)nc(NC[C@H]4CC[C@H]4COC)c3c2C)n1 (racemic) | 46 to 75% |
| COc1cccc(Nc2nc(-c3nccn3C)nc3sc(-c4ccn(C(C)C)n4)c(C)c23)c1 | 26 to 45% |
| Cc1c(-c2ccn(C(C)C)n2)sc2nc(-c3nccn3C)nc(NCC3CN(C)CCO3)c12 (racemic) | 76 to 100% |
| COc1cc(-c2sc3nc(-c4nccn4C)nc(N[C@@H]4CC[C@@H](OC)C4)c3c2-c2ccccc2)ccn1 (racemic) | 46 to 75% |
